test.details: 1-Octanol/PBS buffer distribution coefficient, log D of the compound at pH 7.4
Assay type: physicochemical
observed.property: logD
Give bare numbers.

Could you share which logD value was measured for `O=C(NCc1cn[nH]c1)Nc1ccc(S(=O)(=O)c2ccc(Cl)cc2)cc1` ? 3.1

---

test.details: Solubility of compound at pH 6.8
Type: physicochemical
reported.conditions: buffer
observed.property: solubility (µg/mL)
Give bare numbers, in µg/mL.

Could you share which solubility value was measured for `O=C(NCc1cn[nH]c1)Nc1ccc(S(=O)(=O)c2ccc(Cl)cc2)cc1` ? 8.5

---

Provide the recorded log10 of EC50 for the entries that follow.
target.or.system: Nicotinamide phosphoribosyltransferase (Homo sapiens, UniProt P43490)
Sequence (P43490 whole entry): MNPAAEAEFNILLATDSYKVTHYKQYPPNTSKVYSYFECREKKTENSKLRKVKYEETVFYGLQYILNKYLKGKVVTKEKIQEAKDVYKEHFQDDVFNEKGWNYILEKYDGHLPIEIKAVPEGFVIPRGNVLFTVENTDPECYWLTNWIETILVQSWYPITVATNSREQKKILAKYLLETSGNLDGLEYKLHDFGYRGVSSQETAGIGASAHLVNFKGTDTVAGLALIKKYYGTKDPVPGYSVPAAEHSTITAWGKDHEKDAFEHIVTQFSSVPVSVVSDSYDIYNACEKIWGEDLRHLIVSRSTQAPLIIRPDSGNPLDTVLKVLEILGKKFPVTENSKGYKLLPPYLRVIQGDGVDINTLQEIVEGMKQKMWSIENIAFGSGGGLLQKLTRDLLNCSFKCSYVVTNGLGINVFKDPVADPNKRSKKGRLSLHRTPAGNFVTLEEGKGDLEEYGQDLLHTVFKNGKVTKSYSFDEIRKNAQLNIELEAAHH
test.details: Activation of human NAMPT
In plain terms, each number is the log10 of measured EC50 in nM.

Here is how some compounds turned out for log10 of EC50.
CCOC(=O)c1ccc(N/C(=N\C#N)NCc2ccncc2)cc1 4.62
O=C(NCc1ccncc1)Nc1ccc(S(=O)(=O)NCc2ccccc2)cc1 2.01
O=C(NCc1ccncc1)Nc1ccc(S(=O)(=O)Nc2ccccc2)cc1 2.61
O=C(NCc1ccncc1)Nc1ccc(S(=O)(=O)c2ccc(Cl)cc2)cc1 2.10
O=C(NCc1cn[nH]c1)Nc1ccc(S(=O)(=O)c2ccccc2)cc1 1.45

Please go through the list and note log10 of EC50 for each compound.
1. O=C(NCc1ccncc1)Nc1ccc(S(=O)(=O)N2CC3CCC(C2)O3)cc1
2. CN(C1CCCC1)S(=O)(=O)c1ccc(NC(=O)NCc2ccncc2)cc1

2.45
2.09

Could you share which log10 of EC50 value was measured for `CCOC(=O)c1ccc(NC(=O)NCc2cc[nH]n2)cc1` ? 4.84

---

test.details: Plasma clearance in mouse at 1 mg/kg, iv
Assay type: ADME, organism-based
Provide the recorded clearance for the entries that follow.
Give bare numbers, in mL/min/kg.

CN(Cc1ccccc1)S(=O)(=O)c1ccc(NC(=O)NCc2ccncc2)cc1 43
O=C(NCc1cn[nH]c1)Nc1ccc(S(=O)(=O)c2ccccc2)cc1 8
O=C(NCc1cn[nH]c1)Nc1ccc(S(=O)(=O)c2ccc(Cl)cc2)cc1 3
O=C(NCc1cnco1)Nc1ccc(S(=O)(=O)c2cccc(OC(F)(F)F)c2)cc1 4

From here, focus on the item given below.
Could you share which clearance value was measured for `O=C(NCc1ccncc1)Nc1ccc(S(=O)(=O)N2CCc3ccccc3C2)cc1` ? 20

---

target.or.system: CYP2D6 (Homo sapiens)
Sequence (P10635 whole entry): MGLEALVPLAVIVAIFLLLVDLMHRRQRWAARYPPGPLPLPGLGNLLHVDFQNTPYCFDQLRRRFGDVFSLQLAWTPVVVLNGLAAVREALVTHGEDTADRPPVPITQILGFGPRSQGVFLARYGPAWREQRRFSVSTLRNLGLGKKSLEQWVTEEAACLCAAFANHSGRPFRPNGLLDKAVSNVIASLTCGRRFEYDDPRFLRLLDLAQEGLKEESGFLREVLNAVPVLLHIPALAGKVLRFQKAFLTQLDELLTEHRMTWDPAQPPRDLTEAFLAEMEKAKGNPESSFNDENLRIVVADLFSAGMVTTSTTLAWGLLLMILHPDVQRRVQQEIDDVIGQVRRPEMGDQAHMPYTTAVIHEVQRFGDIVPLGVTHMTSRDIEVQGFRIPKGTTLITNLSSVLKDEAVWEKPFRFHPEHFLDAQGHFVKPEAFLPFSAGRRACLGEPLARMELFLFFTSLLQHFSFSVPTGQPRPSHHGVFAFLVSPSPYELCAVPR
test.details: Inhibition of CYP2D6 (unknown origin) at 10 uM measured after 10 mins
Format: ADME
observed.property: inhibition at 10 min, 10 µM (%)
Numbers only, in %.

Could you share which inhibition at 10 min, 10 µM value was measured for `O=C(NCc1cn[nH]c1)Nc1ccc(S(=O)(=O)c2ccc(Cl)cc2)cc1` ? 95

---

test.details: Solubility of compound at pH 1.2
Format: physicochemical
reported.conditions: buffer
observed.property: solubility (µg/mL)
Give bare numbers, in µg/mL.

Could you share which solubility value was measured for `O=C(NCc1cn[nH]c1)Nc1ccc(S(=O)(=O)c2ccc(Cl)cc2)cc1` ? 110

---

target.or.system: CYP2C9 (Homo sapiens, UniProt P11712)
Sequence (P11712 whole entry): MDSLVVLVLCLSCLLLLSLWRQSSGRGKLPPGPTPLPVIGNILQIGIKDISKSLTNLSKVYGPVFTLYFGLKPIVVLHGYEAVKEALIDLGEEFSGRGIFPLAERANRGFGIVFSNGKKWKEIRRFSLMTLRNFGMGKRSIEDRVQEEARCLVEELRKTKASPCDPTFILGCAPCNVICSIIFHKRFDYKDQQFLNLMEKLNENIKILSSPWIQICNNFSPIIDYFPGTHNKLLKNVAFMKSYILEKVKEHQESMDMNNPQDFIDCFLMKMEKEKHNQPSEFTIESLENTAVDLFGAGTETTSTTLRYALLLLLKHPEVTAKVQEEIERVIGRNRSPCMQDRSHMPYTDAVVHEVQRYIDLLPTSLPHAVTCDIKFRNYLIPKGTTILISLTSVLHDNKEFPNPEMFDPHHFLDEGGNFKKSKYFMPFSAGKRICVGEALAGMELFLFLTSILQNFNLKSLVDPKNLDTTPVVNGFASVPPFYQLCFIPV
test.details: Inhibition of CYP2C9 (unknown origin) at 10 uM measured after 10 mins
Format: ADME
observed.property: inhibition at 10 min, 10 µM

Can you look up inhibition at 10 min, 10 µM on CYP2C9 (Homo sapiens, UniProt P11712) for `O=C(NCc1cn[nH]c1)Nc1ccc(S(=O)(=O)c2ccc(Cl)cc2)cc1` ? 96%
